Where these numbers come from: patent US20240343666A1

test: Cell viability assay (CCK-8); assay type: cell-based; details: human; 293T-Gluc cells, CCK-8, 48 h
Attribute: CC50 at 48 h

Example entries and their recorded answers appear below.
CC(C)=CC1C/C(=C/CC/C(C)=C/CC/C(C)=C/C[C@]2(O)C(=O)c3c(O)cc(C)c4c(O)c(C)c(O)c(c34)C2=O)CO1 (stereo partly drawn) : > 100 µM
C/C(=C\C[C@]1(O)C(=O)c2c(O)cc(C)c3c(O)c(C)c(O)c(c23)C1=O)CC/C=C(\C)CCC(O)[C@@]1(C)CC[C@@H](C(C)(C)O)O1 (stereo partly drawn) : > 100 µM
NC(=O)c1ncn([C@@H]2O[C@H](CO)[C@@H](O)[C@H]2O)n1 [Ribavirin, reference compound] : > 100 µM
CC(C)=CCC/C(=C/CC/C(C)=C/CC/C(C)=C/C[C@]1(O)C(=O)c2c(O)cc(C)c3c(O)c(C)c(O)c(c23)C1=O)C(=O)O : > 100 µM

Req: # query: CC50 at 48 h of entry C/C(=C\CC/C(C)=C/C[C@]1(O)C(=O)c2c(O)cc(C)c3c(O)c(C)c(O)c(c23)C1=O)CC/C=C1/CCC(C(C)(C)O)OC1 (stereo partly drawn)
Resp: > 100 µM

Req: Request: C/C(=C\CC/C(C)=C/C[C@]1(O)C(=O)c2c(O)cc(C)c3c(O)c(C)c(O)c(c23)C1=O)CC/C=C(\CO)CCC1OC(C)(C)OC1(C)C (stereo partly drawn)
Resp: > 100 µM

* * *

molecular target: influenza virus PA protein (UniProt P15659); format: cell-based; settings: read-out: PA remaining EC50
ASSAY ENDPOINT: DC50 (µM)
Express it in µM; write the number only.

C/C(=C\CC/C(C)=C/C[C@]1(O)C(=O)c2c(O)cc(C)c3c(O)c(C)c(O)c(c23)C1=O)CC/C=C1/CCC(C(C)(C)O)OC1 (some centres unmarked) [Compound C13] : 0.71
C/C(=C\CC/C(C)=C/C[C@]1(O)C(=O)c2c(O)cc(C)c3c(O)c(C)c(O)c(c23)C1=O)CC/C=C(\CCC1OC(C)(C)OC1(C)C)C(=O)O (some centres unmarked) [Compound C8] : 0.8
C/C(=C\CC/C(C)=C/C[C@]1(O)C(=O)c2c(O)cc(C)c3c(O)c(C)c(O)c(c23)C1=O)CC/C=C(\CO)CC[C@@H](O)C(C)(C)O [Compound C1] : 0.44
CC(=O)OC(C=C(C)C)C/C(C)=C/CC/C(C)=C/CC/C(C)=C/C[C@]1(O)C(=O)c2c(O)cc(C)c3c(O)c(C)c(O)c(c23)C1=O (some centres unmarked) [Compound C5] : 0.73

Here is the next item to consider.
Req: Please give the measured DC50 for this compound: CC(C)=CCC/C(=C/CC/C(C)=C/CC/C(C)=C/C[C@]1(O)C(=O)c2c(O)cc(C)c3c(O)c(C)c(O)c(c23)C1=O)CO [Compound C2]
Resp: 0.65

* * *

biological target: influenza virus PA protein (UniProt P15659); format: cell-based; conditions: read-out: PA remaining EC50
Doc: threshold 1 µM (exclusive). Items with DC50 beneath it return MET; others return NOT MET.

Previously resolved entries follow.
C/C(=C\CC/C(C)=C/C[C@]1(O)C(=O)c2c(O)cc(C)c3c(O)c(C)c(O)c(c23)C1=O)CC/C=C(\C)CC[C@@H](O)C(C)(C)O [Compound C6] : NOT MET
CC(C)=CCC/C(=C/CC/C(C)=C/CC/C(C)=C/C[C@]1(O)C(=O)c2c(O)cc(C)c3c(O)c(C)c(O)c(c23)C1=O)C(=O)O [Compound C12] : NOT MET
C/C(=C\C[C@]1(O)C(=O)c2c(O)cc(C)c3c(O)c(C)c(O)c(c23)C1=O)CC/C=C(\C)CCC(O)[C@@]1(C)CC[C@@H](C(C)(C)O)O1 (stereo partly drawn) [Compound C9] : NOT MET

Req: Item CC(C)=CCC/C(C=O)=C\CC/C(C)=C/CC/C(C)=C/C[C@]1(O)C(=O)c2c(O)cc(C)c3c(O)c(C)c(O)c(c23)C1=O [Compound C3] : DC50 beneath 1 µM, strictly?
Resp: NOT MET

Req: Another compound to check: C/C(=C\CC/C(C)=C/C[C@]1(O)C(=O)c2c(O)cc(C)c3c(O)cc(O)c(c23)C1=O)CC/C=C(\CO)CC[C@@H](O)C(C)(C)O [Compound C11]
Resp: MET
